Please respond with reported Time for every item in the list.
Assay: […] peak time for H2S release in pH 7.4 PBS buffer containing 10% THF incubated for 2 hrs at room temperature in presence of cysteine by methylene blue based UV-Vis spectrometry
Assay type: physicochemical
Conditions: pH 7.4, 2 h
Please respond with the number in min and leave the unit unwritten.

State the recorded Time for this entry: Cc1cccc(C(=O)SNC(=O)c2ccccc2)c1 55

// query: Cc1ccc(NC(=O)NSC(=O)c2ccccc2)cc1 90

// query: O=C(NSC(=O)c1ccccc1)c1cccc(Cl)c1 60

// query: CC(=O)SNC(=O)c1ccccc1 60

// query: CC(C)(C)C(=O)SNC(=O)c1ccccc1 80

// query: CCCC(=O)NSC(=O)c1ccccc1 60

// query: O=C(NSC(=O)c1ccc(F)cc1)c1ccccc1 50

// query: O=C(NSC(=O)c1ccc(F)cc1)Nc1ccccc1 75

// query: COc1ccccc1C(=O)SNC(=O)c1ccccc1 60

// query: COc1ccc(C(=O)SNC(=O)c2ccccc2)cc1 60

// query: CC(C)C(=O)SNC(=O)c1ccccc1 65

// query: O=C(NSC(=O)c1ccc(C(F)(F)F)cc1)c1ccccc1 45

// query: CC(=O)NSC(=O)c1ccccc1 45

====

Test: GSH-induced H2S release assessed as peak H2S level in pH 7.4 PBS buffer containing 10% THF incubated for 2 hrs at room temperature in presence of 1 mM GSH by methylene blue based UV-Vis spectrometry
Assay type: physicochemical
Details: pH 7.4, 2 h
measurement-kind: Activity (µM)
Please respond with the number in µM and leave the unit unwritten.

State the recorded Activity for this entry: CCCC(=O)NSC(=O)c1ccccc1 58.3

// query: O=C(NSC(=O)c1cccc(Cl)c1)c1ccccc1 31.3

// query: Cc1ccc(C(=O)SNC(=O)Nc2ccccc2)cc1 20

// query: CC(=O)SNC(=O)c1ccccc1 63.1

// query: COc1ccccc1C(=O)SNC(=O)c1ccccc1 34

====

Assay: GSH-induced H2S release assessed as peak H2S level in pH 7.4 PBS buffer containing 10% THF incubated for 2 hrs at room temperature in presence of cysteine by methylene blue based UV-Vis spectrometry
Format: physicochemical
Settings: pH 7.4, 2 h
Please respond with reported Activity for every item in the list.
Please respond with the number in µM and leave the unit unwritten.

State the recorded Activity for this entry: O=C(NSC(=O)c1ccc(Cl)cc1)Nc1ccccc1 18.2

// query: O=C(NSC(=O)C1CCCCC1)c1ccccc1 48.1

// query: CC(C)(C)C(=O)SNC(=O)c1ccccc1 37.5

// query: O=C(Cc1ccccc1)SNC(=O)c1ccccc1 33.4

// query: O=C(NSC(=O)c1ccc(C(F)(F)F)cc1)c1ccccc1 48.3

====

Please respond with reported Time for every item in the list.
Experiment: […] peak time for H2S release in pH 7.4 PBS buffer containing 10% THF incubated for 2 hrs at room temperature in presence of cysteine by methylene blue based UV-Vis spectrometry
Assay type: physicochemical
Conditions: pH 7.4, 2 h
Please respond with the number in min and leave the unit unwritten.

State the recorded Time for this entry: O=C(Cc1ccccc1)SNC(=O)c1ccccc1 50

// query: CC(C(=O)SNC(=O)c1ccccc1)c1ccccc1 (stereo not drawn) 60

// query: COc1ccc(C(=O)SNC(=O)Nc2ccccc2)cc1 105

// query: O=C(NSC(=O)c1cccc(Cl)c1)c1ccccc1 50

// query: COC(=O)c1ccc(C(=O)SNC(=O)c2ccccc2)cc1 50

// query: O=C(NSC(=O)c1ccccc1)Nc1ccc(Cl)cc1 110

// query: O=C(NSC(=O)c1ccccc1)c1ccc(F)cc1 55

// query: O=C(NSC(=O)c1ccccc1)Nc1ccccc1 95

// query: Cc1ccc(C(=O)SNC(=O)c2ccccc2)cc1 60

// query: Cc1ccc(C(=O)SNC(=O)Nc2ccccc2)cc1 105

// query: CN(C)c1ccc(C(=O)SNC(=O)c2ccccc2)cc1 65

// query: O=C(NSC(=O)c1ccc(Cl)cc1)Nc1ccccc1 95

// query: O=C(NSC(=O)c1ccccc1)c1ccccc1 55

====

Assay: […] peak time for H2S release in pH 7.4 PBS buffer containing 10% THF incubated for 2 hrs at room temperature in presence of cysteine by methylene blue based UV-Vis spectrometry
Type: physicochemical
Settings: pH 7.4, 2 h
measurement-kind: Time (min)
Please respond with the number in min and leave the unit unwritten.

State the recorded Time for this entry: O=C(NSC(=O)C1CCCCC1)c1ccccc1 65

// query: CCC(=O)NSC(=O)c1ccccc1 55

// query: Cc1ccccc1C(=O)NSC(=O)c1ccccc1 55

// query: Cc1ccccc1C(=O)SNC(=O)c1ccccc1 60

// query: O=C(NSC(=O)C1CCCC1)c1ccccc1 60

// query: CC(=O)Oc1ccccc1C(=O)NSC(=O)c1ccccc1 60

// query: COc1cccc(C(=O)SNC(=O)c2ccccc2)c1 55

====

Please respond with reported Activity for every item in the list.
Assay: GSH-induced H2S release assessed as peak H2S level in pH 7.4 PBS buffer containing 10% THF incubated for 2 hrs at room temperature in presence of 1 mM GSH by methylene blue based UV-Vis spectrometry
Assay type: physicochemical
Details: pH 7.4, 2 h
Please respond with the number in µM and leave the unit unwritten.

State the recorded Activity for this entry: COc1ccc(C(=O)SNC(=O)c2ccccc2)cc1 46.8

// query: COc1cccc(C(=O)SNC(=O)c2ccccc2)c1 39.5

// query: Cc1ccc(NC(=O)NSC(=O)c2ccccc2)cc1 27.4

// query: O=C(NSC(=O)c1ccccc1)Nc1ccc(Cl)cc1 20.9

// query: O=C(NSC(=O)c1ccc(F)cc1)Nc1ccccc1 18.5

// query: CCC(=O)NSC(=O)c1ccccc1 54.1

// query: CN(C)c1ccc(C(=O)SNC(=O)c2ccccc2)cc1 7.6

// query: O=C(NSC(=O)c1ccc(Cl)cc1)Nc1ccccc1 24.9

// query: Cc1ccccc1C(=O)SNC(=O)c1ccccc1 19.8

// query: CC(C)C(=O)SNC(=O)c1ccccc1 58.4

// query: CC(C)(C)C(=O)SNC(=O)c1ccccc1 48.1

// query: CC(=O)Oc1ccccc1C(=O)NSC(=O)c1ccccc1 44.5

// query: O=C(NSC(=O)C1CCCC1)c1ccccc1 49.9

// query: COc1ccc(C(=O)SNC(=O)Nc2ccccc2)cc1 26.4

// query: COC(=O)c1ccc(C(=O)SNC(=O)c2ccccc2)cc1 36

// query: Cc1ccc(C(=O)SNC(=O)c2ccccc2)cc1 39.8

// query: O=C(NSC(=O)c1ccccc1)c1cccc(Cl)c1 29.9

// query: O=C(Cc1ccccc1)SNC(=O)c1ccccc1 47.5

// query: CC(=O)NSC(=O)c1ccccc1 58.3

// query: O=C(NSC(=O)c1ccccc1)Nc1ccccc1 29.9

// query: Cc1ccccc1C(=O)NSC(=O)c1ccccc1 57.6

// query: O=C(NSC(=O)c1ccc(F)cc1)c1ccccc1 40.6

// query: Cc1cccc(C(=O)SNC(=O)c2ccccc2)c1 39.3

====

Assay: GSH-induced H2S release assessed as peak H2S level in pH 7.4 PBS buffer containing 10% THF incubated for 2 hrs at room temperature in presence of cysteine by methylene blue based UV-Vis spectrometry
Format: physicochemical
Conditions: pH 7.4, 2 h
measurement-kind: Activity (µM)
Please respond with the number in µM and leave the unit unwritten.

State the recorded Activity for this entry: COc1ccc(C(=O)SNC(=O)c2ccccc2)cc1 41.8

// query: CC(C(=O)SNC(=O)c1ccccc1)c1ccccc1 (stereo unspecified) 48.2

// query: O=C(NSC(=O)c1ccccc1)c1ccc(F)cc1 38.5

// query: CN(C)c1ccc(C(=O)SNC(=O)c2ccccc2)cc1 19.5

// query: COc1cccc(C(=O)SNC(=O)c2ccccc2)c1 47

// query: O=C(NSC(=O)c1ccccc1)c1ccccc1 55.8

// query: COC(=O)c1ccc(C(=O)SNC(=O)c2ccccc2)cc1 38.8

// query: O=C(NSC(=O)C1CCCC1)c1ccccc1 40.9

// query: O=C(NSC(=O)c1ccc(F)cc1)c1ccccc1 39.5

// query: COc1ccc(C(=O)SNC(=O)Nc2ccccc2)cc1 14.1

// query: O=C(NSC(=O)c1cccc(Cl)c1)c1ccccc1 49.4

// query: Cc1ccc(NC(=O)NSC(=O)c2ccccc2)cc1 21.8

// query: COc1ccccc1C(=O)SNC(=O)c1ccccc1 29

// query: O=C(NSC(=O)c1ccc(F)cc1)Nc1ccccc1 18.8

// query: CC(C)C(=O)SNC(=O)c1ccccc1 40.7

// query: CC(=O)NSC(=O)c1ccccc1 46.4

// query: O=C(NSC(=O)c1ccccc1)Nc1ccccc1 21.5

// query: Cc1ccc(C(=O)SNC(=O)c2ccccc2)cc1 45.4

// query: CC(=O)Oc1ccccc1C(=O)NSC(=O)c1ccccc1 35.1

// query: Cc1ccccc1C(=O)NSC(=O)c1ccccc1 51.4

// query: Cc1ccc(C(=O)SNC(=O)Nc2ccccc2)cc1 16.5

// query: Cc1ccccc1C(=O)SNC(=O)c1ccccc1 29.4

// query: CCC(=O)NSC(=O)c1ccccc1 44.1

// query: CCCC(=O)NSC(=O)c1ccccc1 45.9

// query: O=C(NSC(=O)c1ccccc1)c1cccc(Cl)c1 25.2

// query: CC(=O)SNC(=O)c1ccccc1 48.4

Where do these numbers come from? They come from ChEMBL document CHEMBL3612036.
